- assay-explanation: Cytotoxicity in PHH natural infection assay (Cell Counting Kit-8)
- Format: cell-based
- condition-description: HBV-infected primary human hepatocytes, CCK8
quantity-measured: CC50 at 144 h

// returns reported CC50 at 144 h for input COc1cc(C(=O)NC2CC3(C2)CN(c2nc4cc(Cl)ccc4o2)C3)ccn1 [Example 43] 84.8 µM

// returns reported CC50 at 144 h for input Cc1ccc(S(=O)(=O)N2CCC(CC(=O)NCC3CCN(c4nc5cc(Cl)ccc5o4)CC3)C2)cc1 (stereo not drawn) [Example 18] > 10 µM

***
// returns reported CC50 at 144 h for input CCNC(=O)NC1CC2(C1)CN(c1nc3cc(Cl)ccc3o1)C2 [Example 24] > 100 µM

---

- assay-explanation: Cytotoxicity in PHH natural infection assay (Cell Counting Kit-8)
- Type: cell-based
- condition-description: HBV-infected primary human hepatocytes, CCK8
The following compounds are listed with their measured CC50 at 144 h values.

Use these answered entries as a reference point.
// returns reported CC50 at 144 h for input `CC(C)CS(=O)(=O)c1ccc(C(=O)NC2CC3(C2)CN(c2nc4cc(Cl)ccc4o2)C3)o1` 84.5 µM

// returns reported CC50 at 144 h for input O=C(NC1CC2CN(c3nc4cc(Cl)ccc4o3)CC2C1)c1ccc(C(F)(F)F)o1 (centres unmarked) > 100 µM

// returns reported CC50 at 144 h for input O=C(NC1CCC2(CC1)CCN(c1nc3cc(Cl)ccc3o1)CC2)C1CCOC1 (centres unmarked) 82.7 µM

// returns reported CC50 at 144 h for input `COc1cc(C(=O)NC2CC3(C2)CN(c2nc4ccc(Cl)cc4o2)C3)ccn1` > 10 µM

// returns reported CC50 at 144 h for input `CS(=O)(=O)Cc1ccc(C(=O)NC2CCC3(CC2)CCN(c2nc4cc(Cl)ccc4o2)CC3)o1` > 10 µM

***
// returns reported CC50 at 144 h for input `O=C(NC1CC2(C1)CN(c1nc3cc(Cl)ccc3o1)C2)c1ccc(S(=O)(=O)NC2CC(F)(F)C2)o1` > 10 µM

// returns reported CC50 at 144 h for input `O=C(NC1CC2(C1)CN(c1nc3cc(Cl)ccc3o1)C2)C1CCS(=O)(=O)CC1` > 100 µM

// returns reported CC50 at 144 h for input `NC(=O)c1ccc(C(=O)NCC2CCN(c3nc4cc(Cl)ccc4o3)CC2)o1` > 10 µM

---

- assay-explanation: Cytotoxicity in PHH natural infection assay (Cell Counting Kit-8)
- Assay type: cell-based
- condition-description: HBV-infected primary human hepatocytes, CCK8
The following molecules are listed with their measured CC50 at 144 h values.

// returns reported CC50 at 144 h for input `O=C(NC1CC2(C1)CN(c1nc3cc(Cl)ccc3o1)C2)C1CC(F)(F)C1` > 100 µM

// returns reported CC50 at 144 h for input O=C(NC1CCC2(C1)CN(c1nc3cc(Cl)ccc3o1)C2)c1ccc(C(F)(F)F)o1 (centres unmarked) 83.2 µM

***
// returns reported CC50 at 144 h for input N=S(=O)(c1ccc(C(=O)NC2CCC3(CC2)CCN(c2nc4cc(Cl)ccc4o2)CC3)o1)C1CC1 (centres unmarked) 66.6 µM

// returns reported CC50 at 144 h for input `CS(=O)(=O)N1CCC(CC(=O)NCC2CCN(c3nc4cc(Cl)ccc4o3)CC2)CC1` > 10 µM
